Tested on: ANGPTL4, a PPARG target gene, in HT1197 (RXRA S427F mutation) cells
protocol_text: Bladder cancer pharmacodynamic assay (HT1197 cell assay, qPCR of PPARG target genes)
Type: cell-based
settings: Homo sapiens, 100 nM compound, 24 hours, relative to DMSO control
inhibition at 0.1 µM values for the compounds below.
# unit: % | format: bare number

Per the record, N#Cc1cc(C(=O)Nc2cc(F)cc(F)c2)c(S(=O)(=O)CC(F)(F)F)cn1 [Example 34] has inhibition at 0.1 µM of 59

Per the record, CS(=O)(=O)c1ccc(C#N)cc1C(=O)Nc1cc(F)c(-c2ccc(C(F)F)nc2)c(F)c1 [Example 13] has inhibition at 0.1 µM of 80

Others:
Per the record, CS(=O)(=O)c1ccc(C#N)cc1C(=O)Nc1cc(F)cc(C#N)c1 [Example 25] has inhibition at 0.1 µM of 77

Per the record, Cn1cc(-c2c(F)cc(NC(=O)c3cc(C#N)ccc3S(C)(=O)=O)cc2F)cn1 [Example 28] has inhibition at 0.1 µM of 72
